Target desc: recombinant PIM-1 (Homo sapiens, UniProt P11309)
Sequence (P11309 whole entry): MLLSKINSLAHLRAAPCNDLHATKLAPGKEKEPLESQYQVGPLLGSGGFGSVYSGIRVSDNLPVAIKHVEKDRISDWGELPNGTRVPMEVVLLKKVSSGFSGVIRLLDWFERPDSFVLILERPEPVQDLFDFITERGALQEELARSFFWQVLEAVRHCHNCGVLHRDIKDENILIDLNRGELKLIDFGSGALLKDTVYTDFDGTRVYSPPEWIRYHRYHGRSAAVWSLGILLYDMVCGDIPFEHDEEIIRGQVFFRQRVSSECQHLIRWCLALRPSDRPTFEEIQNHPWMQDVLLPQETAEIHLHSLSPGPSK
Test details: PIM-1 assay (33P-ATP filter plate)
Format: biochemical
Applied conditions: Table 1; read-out: PIM1: IC50
Measured endpoint: IC50 (µM)

1: O=C1NC(=S)S/C1=C\c1ccc(-c2cc(C(=O)O)ccc2Cl)o1
2: O=C1NC(=S)S/C1=C\c1ccc(-c2cccc(C(=O)N3CC[C@@H](F)C3)c2)o1
// pick min by IC50: 1 , 2 // return label of chosen record
2
(2: 0.04 µM, 1: 0.199 µM)

* * *

Target desc: recombinant human PIM2 (Homo sapiens)
Sequence (Q9P1W9 whole entry): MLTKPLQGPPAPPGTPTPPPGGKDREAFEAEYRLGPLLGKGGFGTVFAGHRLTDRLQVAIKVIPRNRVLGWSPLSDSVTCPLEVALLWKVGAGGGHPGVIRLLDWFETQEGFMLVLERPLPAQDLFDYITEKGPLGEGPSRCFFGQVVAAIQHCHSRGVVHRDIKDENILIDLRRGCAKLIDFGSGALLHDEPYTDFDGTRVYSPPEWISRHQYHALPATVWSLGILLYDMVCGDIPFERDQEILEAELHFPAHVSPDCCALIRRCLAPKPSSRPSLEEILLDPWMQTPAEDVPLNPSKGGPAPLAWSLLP
Test details: PIM-2 assay (33P-ATP filter plate)
Format: biochemical
Applied conditions: Table 5
pIC50: −log10 of the molar value.
Measured endpoint: pIC50

Substance smiles | Target desc | Result
O=C1NC(=O)/C(=C\c2ccc(F)c(-c3cncc(N4CCCN(C(=O)OCc5ccccc5)CC4)n3)c2)S1 | recombinant human PIM2 (Homo sapiens) | > 7.30
CC(C)NC(=O)N1CCCN(c2cncc(-c3cc(/C=C4/SC(=O)NC4=O)ccc3F)n2)CC1 | recombinant human PIM2 (Homo sapiens) | > 7.30
COc1cc(OC)cc(C(=O)N2CCCN(c3cncc(-c4cc(/C=C5/SC(=O)NC5=O)ccc4F)n3)CC2)c1 | recombinant human PIM2 (Homo sapiens) | 6.76
CN1CCCN(c2cncc(-c3cc(/C=C4\SC(=O)NC4=O)ccc3Cl)n2)CC1 | recombinant human PIM2 (Homo sapiens) | > 7.30
CN1CCCN(c2cncc(-c3cc(/C=C4\SC(=S)NC4=O)ccc3F)n2)CC1 | recombinant human PIM2 (Homo sapiens) | 7.30

Find the measured pIC50 of Cc1ccc(-c2cncc(N3CCCN(C)CC3)n2)cc1/C=C1\SC(=O)NC1=O with recombinant human PIM2 (Homo sapiens) as test system.
7.30

// output pIC50; input CN1CCCN(c2cncc(-c3cc(/C=C4\SC(=O)NC4=O)ccc3F)n2)CC1 ; system recombinant human PIM2 (Homo sapiens)
> 7.30

State measured pIC50 of the compound O=C1NC(=O)/C(=C\c2ccc(F)c(-c3cncc(N4CCCN(C(=O)Nc5ccccc5)CC4)n3)c2)S1 with recombinant human PIM2 (Homo sapiens).
> 7.30

Fill in: pIC50 on recombinant human PIM2 (Homo sapiens), entry CCOC(=O)N1CCCN(c2cncc(-c3cc(/C=C4/SC(=O)NC4=O)ccc3F)n2)CC1
> 7.30
